# targetOfAssay: Factor X (FX), P00742
# Sequence (P00742 whole entry, looked up): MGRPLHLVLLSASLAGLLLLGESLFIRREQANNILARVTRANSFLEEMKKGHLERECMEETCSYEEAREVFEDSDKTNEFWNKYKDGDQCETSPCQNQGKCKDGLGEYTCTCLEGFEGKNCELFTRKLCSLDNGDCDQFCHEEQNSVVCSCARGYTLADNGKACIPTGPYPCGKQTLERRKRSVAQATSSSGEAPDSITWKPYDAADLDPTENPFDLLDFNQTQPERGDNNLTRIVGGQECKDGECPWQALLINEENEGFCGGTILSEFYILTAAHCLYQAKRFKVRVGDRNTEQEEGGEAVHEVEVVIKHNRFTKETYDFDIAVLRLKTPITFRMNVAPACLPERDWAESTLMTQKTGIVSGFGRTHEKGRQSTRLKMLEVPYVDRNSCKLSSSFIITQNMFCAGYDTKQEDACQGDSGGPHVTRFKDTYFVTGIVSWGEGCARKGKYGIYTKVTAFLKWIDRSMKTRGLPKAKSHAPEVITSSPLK
observationType: kcat

protein="FIXa-Y155F/K247N/N249S/R403E/E410N (protein) chain 1: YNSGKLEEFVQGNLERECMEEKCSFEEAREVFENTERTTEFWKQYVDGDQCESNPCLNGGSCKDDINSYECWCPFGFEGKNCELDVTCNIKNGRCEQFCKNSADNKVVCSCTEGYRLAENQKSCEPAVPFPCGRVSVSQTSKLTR chain 2: VVGGEDAKPGQFPWQVVLNGKVDAFCGGSIVNEKWIVTAAHCVETGVKITVVAGEHNIEETEHTEQNRSVIRIIPHHNYNAAINKYNHDIALLELDEPLVLNSYVTPICIADKEYTNIFLKFGSGYVSGWGRVFHKGRSALVLQYLRVPLVDRATCLRSTKFTIYNNMFCAGFHEGGRDSCQGDSGGPHVTEVEGTSFLTGIISWGEECAMKGKYGIYTKVSEYVNWIKNKTKLT" reported="2.7 s⁻¹"
protein="FIXa-Y155F/K247N/N249S/R318Y/T343R/R403E (protein) chain 1: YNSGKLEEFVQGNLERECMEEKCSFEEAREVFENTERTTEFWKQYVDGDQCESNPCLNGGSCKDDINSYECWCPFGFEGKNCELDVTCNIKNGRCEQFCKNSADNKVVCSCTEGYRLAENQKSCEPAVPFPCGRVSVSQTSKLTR chain 2: VVGGEDAKPGQFPWQVVLNGKVDAFCGGSIVNEKWIVTAAHCVETGVKITVVAGEHNIEETEHTEQNRSVIRIIPHHNYNAAINKYNHDIALLELDEPLVLNSYVTPICIADKEYTNIFLKFGSGYVSGWGRVFHKGYSALVLQYLRVPLVDRATCLRSTKFRIYNNMFCAGFHEGGRDSCQGDSGGPHVTEVEGTSFLTGIISWGEECAMKGKYGIYTKVSEYVNWIKEKTKLT" reported="7.5 s⁻¹"
